test system: Aedes aegypti neuropeptide Y-like receptor 7 (NPYLR7); assay: agonists of mosquito NPYLR7 receptor, primary screen, cell-based, Aedes aegypti, calcium fluorescence, mosquito biting behavior (AID 1259423); details: HEK293T NPYLR7/Galpha15, GCaMP6s calcium fluorescence; measured here: Max-Min RFU normalised activation; at 10 µM; stronger effect = higher value;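 note: 0% = vehicle and 100% = reference agonist at the receptor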
Out of some 270,000 compounds screened, about 410 (0.15%) were called active. Only a selection was taken, and actives are over-represented in it overall.
ASSAY ENDPOINT: activation (%)
One number for each entry, in %.

Reference set, count: 4
OCc1ccc(CN2CCC(Oc3ccc(Cl)cc3)CC2)o1 :: 0.105
CCn1c(N2CCN(Cc3cccc4ccccc34)CC2)nc2c1c(=O)[nH]c(=O)n2C :: 4.2
CCN1C(=O)CSC1=C(C#N)C(N)=O :: -0.252
COc1cccc(OC)c1-c1cnnc(NCCN2CCCc3ccccc32)n1 :: 11.8

# return activation for each item in the list
1. CCCCN(C)C(=O)c1cnn(-c2ccccc2)c1
2. COc1cc2c(cc1OC)C(c1ccccc1)N(C(=O)c1cc3c(s1)-c1ccccc1OC3)CC2 (stereo not drawn)
3. O=C(Nc1ccc(C(F)(F)F)cc1)C1CCCN(c2ccc(-c3ccco3)nn2)C1 (stereo not drawn)
4. COC(=O)C1=C(NC(=O)CSCc2ccccc2)CCS1
5. CC(C)OCCCNC(=O)c1ccc(-c2cccc(C(F)(F)F)c2)s1
6. COc1cc(C=C2SC(=S)NC2=O)cc(Br)c1O
7. Cc1ccn(-c2ccc(NC3CC4CCC3O4)nn2)n1 (stereo not drawn)

Result:
-1.33
6.66
-8.71
-1.58
5.92
942
3.85

# return activation for each item in the list
1. O=C1CCCCCCCCCOCCCCCO1
2. CNC(=O)NC(=O)C(C)Sc1nnc(-c2ccco2)n1CCC(N)=O (stereo not drawn)
3. N#CC1C(=N)SC(=N)C(C#N)C1c1cccc(O)c1 (stereo not drawn)
4. COC(=O)C1Cc2ccccc2CN1Cc1cccc(C(=O)N(C)C)c1 (stereo not drawn)
5. CCc1ccc(C2C(C#N)C(=N)SC(=N)C2C#N)cc1 (stereo not drawn)

Result:
[0.962, 5.62, 53, -13.5, -2.49]

###

Could you please report measured activation for the items listed next?
test system: Aedes aegypti neuropeptide Y-like receptor 7 (NPYLR7); assay: agonists of mosquito NPYLR7 receptor, primary screen, cell-based, Aedes aegypti, calcium fluorescence, mosquito biting behavior (AID 1259423); details: HEK293T NPYLR7/Galpha15, GCaMP6s calcium fluorescence; at 10 µM; stronger effect = higher value;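 note: 0% = vehicle and 100% = reference agonist at the receptor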
In all, about 270,000 compounds went through this assay and about 410 (0.15%) were called active. The entries come from a sample that favours actives as a whole.
Give bare numbers, in %.

Reference set, count: 3
c1ccc(Nc2nc(-c3ccco3)nc3ccccc23)cc1 :: -1.91
COc1cc(/C=C2/C(=O)N(c3ccc(Cl)c(Cl)c3)N=C2C)cc(Br)c1O :: -1.16
Cc1ccc(Cl)cc1NC(=O)CN1C(=O)c2ccc([N+](=O)[O-])cc2C1=O :: -3.83

# return activation for each item in the list
1. CCn1c(N2CCN(Cc3cccc4ccccc34)CC2)nc2c1c(=O)[nH]c(=O)n2C
2. Cc1cnccc1N1CCCN(C(=O)[C@H](N)CC(C)C)CC1

Result:
1.95
8.21

###

test system: Aedes aegypti neuropeptide Y-like receptor 7 (NPYLR7); assay: agonists of mosquito NPYLR7 receptor, primary screen, cell-based, Aedes aegypti, calcium fluorescence, mosquito biting behavior (AID 1259423); settings: HEK293T NPYLR7/Galpha15, GCaMP6s calcium fluorescence; measured here: Max-Min RFU normalised activation; at 10 µM; stronger effect = higher value;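 note: 0% = vehicle and 100% = reference agonist at the receptor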
Screen size: about 270,000 compounds; about 410 (0.15%) were called active. This is one part of a sample in which actives are shown more often than they occur.
Could you please report measured activation for the items listed next?
Numbers only, in %.

Cc1csc(N(C)C(=O)c2cc(N3CCNC3=O)ccc2F)n1 :: -7.61
COc1ccc(C(=O)C=Cc2ccc(F)c(F)c2)cc1F :: -4.33
CCOC(=O)Cc1csc(=Nc2ccc(OC)cc2)n1CCO :: -20.5
O=P1(Nc2cc(C(F)(F)F)ccc2Cl)C=C(c2ccccc2)OC(c2ccccc2)=C1 :: 88.3
CCC1CCCCN1C(=O)CSc1c(C)[nH]c2ccccc12 (stereo unspecified) :: -2.64

# return activation for each item in the list
1. NC(=O)[C@@H]1CN2CCN(C(=O)c3ccco3)C[C@@H]2[C@H]1c1ccccc1
2. COc1ccc(C=CC(=O)c2ccc(I)cc2)cc1OC
3. COc1ccc(C(=O)C=Cc2cc(Br)c(O)c(OC)c2)cc1F
4. CC(C)(Oc1ccc(Cl)cc1)C(=O)Nn1cnc2c(cnn2-c2ccccc2)c1=O
5. O=c1oc2c(CN3CC4CC(C3)c3cccc(=O)n3C4)c(O)ccc2cc1-c1nc2ccccc2s1 (stereo unspecified)
6. Oc1ccc(-c2onc3ccc(Cl)cc23)cc1

Result:
0.0894
6.21
160
-1.1
372
227

###

tested on: Aedes aegypti neuropeptide Y-like receptor 7 (NPYLR7); experiment: agonists of mosquito NPYLR7 receptor, primary screen, cell-based, Aedes aegypti, calcium fluorescence, mosquito biting behavior (AID 1259423); conditions: HEK293T NPYLR7/Galpha15, GCaMP6s calcium fluorescence; at 10 µM; stronger effect = higher value;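 note: 0% = vehicle and 100% = reference agonist at the receptor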
Hit rate of the full screen: of about 270,000 compounds, about 410 (0.15%) were called active. The entries come from a sample that favours actives as a whole.
ASSAY ENDPOINT: activation (%)
Answers are plain numbers, in %.

Reference set, count: 4
COc1ccc(C=CC(=O)c2ccc(I)cc2)cc1OC :: 1.5
N#CC1C(=N)SC(=N)C(C#N)C1c1ccco1 (configuration not stated) :: -5.34
N#Cc1cc2cc(Cl)cc(Cl)c2oc1=O :: 189
O=C(O)CCC(=O)Nc1nc2c(s1)CCCC2 :: 1.28

# return activation for each item in the list
1. COc1ccc(N2C(=O)/C(=C\c3ccc(N(C)C)cc3)SC2=S)cc1
2. Cc1ccc(CCC(=O)N2CCOC3(CNCCOC3)C2)cc1C (configuration not stated)
3. O=C(Nc1ccc(C(F)(F)F)cc1)C1CCCN(c2ccc(-c3ccco3)nn2)C1 (configuration not stated)
4. CCc1ccc(C2C(C#N)C(=N)SC(=N)C2C#N)cc1 (configuration not stated)

Result:
1: -3.18; 2: 5.94; 3: -4.36; 4: 0.645

# return activation for each item in the list
1. COc1ccc(C(=O)C=Cc2cc(Br)c(O)c(OC)c2)cc1F
2. N#CC1C(=N)SC(=N)C(C#N)C1c1cccc(O)c1 (configuration not stated)
3. CC(C(=O)O)N1C(=O)/C(=C/c2ccc(N(C)C)cc2)SC1=S (configuration not stated)

Result:
1. 172
2. 51
3. 64.5

Ask: Request body: readout activation, system Aedes aegypti neuropeptide Y-like receptor 7 (NPYLR7), query `COCCNC(=S)N(CCC#N)CCN(CCC#N)C(=S)NCCOC` . Return the value.
Result: -2.49

###

Could you please report measured activation for the items listed next?
system: Aedes aegypti neuropeptide Y-like receptor 7 (NPYLR7); experiment: agonists of mosquito NPYLR7 receptor, primary screen, cell-based, Aedes aegypti, calcium fluorescence, mosquito biting behavior (AID 1259423); conditions: HEK293T NPYLR7/Galpha15, GCaMP6s calcium fluorescence; measured here: Max-Min RFU normalised activation; at 10 µM; stronger effect = higher value;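 note: 0% = vehicle and 100% = reference agonist at the receptor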
Out of some 270,000 compounds screened, about 410 (0.15%) were called active. This excerpt belongs to a sample that is enriched for actives.
One number for each entry, in %.

N#Cc1cc2cc(Cl)cc(Cl)c2oc1=O :: 162
Cc1nc2c(=O)n(CC(=O)Nc3ccc(F)cc3)nc(-c3ccc(F)cc3)c2s1 :: -5.39
CC(=O)c1ccc(C(=O)Nc2sc3c(c2-c2nc4ccccc4s2)CCN(C)C3)cc1 :: 11.3
O=C(O)CCC(=O)Nc1nc2c(s1)CCCC2 :: -0.361
O=C(Nc1nc2c(s1)CCC2)c1cnn(Cc2ccccc2)c1 :: -2.1

# return activation for each item in the list
1. N#C/C(=C/c1cn(-c2ccccc2)nc1-c1ccco1)c1nc2ccccc2c(=O)[nH]1
2. O=C(c1cnn(-c2ccccc2)n1)N1CCCC(COCc2ccccc2)C1 (centres undefined)

Result:
10.5
92.7

# return activation for each item in the list
1. COCCNCC(=O)N(Cc1ccccc1)Cc1ccc(C)s1
2. COc1ccc(CN(Cc2nc(C(=O)O)co2)C(C)c2ccccc2)c(OC)c1 (centres undefined)
3. N#Cc1cc(Cl)c(Cl)cc1C#N
4. COC(=O)Cn1cc(C=C(C#N)C(=O)NCCc2c[nH]c3ccccc23)c2ccccc21
5. Cn1nc(C(=O)N2CCCC(COc3ccccc3F)C2)ccc1=O (centres undefined)
6. O=C(Cc1cnn(-c2ccccc2)n1)N1CCCCCCC1
7. CC1CN(c2ccc(/C=C(\C#N)c3nc4ccccc4[nH]3)o2)CC(C)O1 (centres undefined)
8. CC(=O)N1CCc2c(sc(NC(=O)c3cccs3)c2-c2nc3ccccc3s2)C1

Result:
1. -13.2
2. 6.62
3. 8.51
4. 1.01
5. 4.67
6. 7.94
7. 110
8. 5.03
